Target: High affinity cGMP-specific 3',5'-cyclic phosphodiesterase 9A (Homo sapiens)
Sequence (O76083 whole entry): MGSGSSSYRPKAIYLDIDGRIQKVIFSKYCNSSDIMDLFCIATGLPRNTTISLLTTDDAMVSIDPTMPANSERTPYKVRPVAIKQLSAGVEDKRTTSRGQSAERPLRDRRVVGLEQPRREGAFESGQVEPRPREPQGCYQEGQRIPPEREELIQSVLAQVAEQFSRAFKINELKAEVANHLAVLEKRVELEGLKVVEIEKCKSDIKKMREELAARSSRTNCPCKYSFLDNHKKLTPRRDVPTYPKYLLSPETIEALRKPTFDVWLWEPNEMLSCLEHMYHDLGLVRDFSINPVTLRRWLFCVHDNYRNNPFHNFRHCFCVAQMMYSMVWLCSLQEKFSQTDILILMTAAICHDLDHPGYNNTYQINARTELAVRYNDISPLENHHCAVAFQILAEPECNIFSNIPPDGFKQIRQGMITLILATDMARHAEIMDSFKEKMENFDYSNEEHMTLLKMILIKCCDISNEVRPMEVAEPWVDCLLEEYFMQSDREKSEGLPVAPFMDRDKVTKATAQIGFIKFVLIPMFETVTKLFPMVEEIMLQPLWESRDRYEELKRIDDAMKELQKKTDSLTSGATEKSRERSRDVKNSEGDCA
READOUT_NAME: IC50

The compound `CN1CC(=O)N2[C@H](c3ccc4c(c3)OCO4)c3[nH]c4ccccc4c3C[C@@H]2C1=O` , when measured on High affinity cGMP-specific 3',5'-cyclic phosphodiesterase 9A (Homo sapiens), yielded IC50 of > 10 µM

* * *

Experiment: Cmax in Sprague-Dawley rat at 1 mg/kg, po measured up to 24 hrs by LC-MS/MS analysis
Type: ADME, organism-based
Parameters: dose 1 mg/kg, route oral
Settings: in vivo
READOUT_NAME: Cmax
A bare number is not enough; add the unit after it.

The value of Cmax measured for the compound `CCCOc1ccc(NC(=O)CN2CCN(C)CC2)cc1-c1nc(CC)c(CC)c(=O)[nH]1` turned out to be 43.9 ng/mL

* * *

Molecular target: Cone cGMP-specific 3',5'-cyclic phosphodiesterase subunit alpha' (Homo sapiens)
Sequence (P51160 whole entry): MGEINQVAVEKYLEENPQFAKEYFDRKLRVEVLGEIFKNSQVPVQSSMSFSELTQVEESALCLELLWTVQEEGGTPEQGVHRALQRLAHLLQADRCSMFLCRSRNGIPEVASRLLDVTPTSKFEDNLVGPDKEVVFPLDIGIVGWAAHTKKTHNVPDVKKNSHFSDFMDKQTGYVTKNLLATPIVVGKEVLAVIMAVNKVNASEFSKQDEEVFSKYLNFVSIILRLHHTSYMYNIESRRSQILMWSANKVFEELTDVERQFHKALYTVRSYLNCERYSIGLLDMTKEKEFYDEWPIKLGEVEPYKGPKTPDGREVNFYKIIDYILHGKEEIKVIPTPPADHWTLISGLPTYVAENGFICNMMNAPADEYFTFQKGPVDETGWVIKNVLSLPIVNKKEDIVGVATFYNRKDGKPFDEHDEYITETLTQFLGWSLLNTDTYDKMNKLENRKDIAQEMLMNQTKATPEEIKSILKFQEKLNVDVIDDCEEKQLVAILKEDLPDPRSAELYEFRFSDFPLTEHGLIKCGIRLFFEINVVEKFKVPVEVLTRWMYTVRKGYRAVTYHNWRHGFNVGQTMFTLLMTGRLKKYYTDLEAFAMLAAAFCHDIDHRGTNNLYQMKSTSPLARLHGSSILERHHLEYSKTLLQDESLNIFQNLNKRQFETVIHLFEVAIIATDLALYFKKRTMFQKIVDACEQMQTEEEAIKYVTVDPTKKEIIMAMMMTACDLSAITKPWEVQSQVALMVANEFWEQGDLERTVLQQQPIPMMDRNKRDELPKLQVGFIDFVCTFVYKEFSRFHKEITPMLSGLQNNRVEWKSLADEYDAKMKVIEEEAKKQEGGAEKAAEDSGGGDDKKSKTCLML
Test: Inhibition of N-terminal GST-tagged human PDE6C expressed in baculovirus infected sf9 cells using [3H]cGMP as substrate measured after 30 mins by scintillation proximity assay
READOUT_NAME: IC50

The value of IC50 measured for the molecule `CCCOc1ccc(NC(=O)CN2CCN(C)CC2)cc1-c1nc(CC)c(CC)c(=O)[nH]1` turned out to be 19.8 nM

* * *

Experiment: Clearance in Beagle dog at 0.5 mg/kg, iv measured up to 24 hrs by LC-MS/MS analysis
Type: ADME, organism-based, Canis lupus familiaris
Settings: in vivo
READOUT_NAME: clearance (mL/min/kg)
Numbers only; they are read as mL/min/kg.

The value of clearance measured for the compound `CCCOc1ccc(NC(=O)CN2CCN(C)CC2)cc1-c1nc(CC)c(CC)c(=O)[nH]1` turned out to be 10.8

* * *

Experiment: Half-life in Beagle dog at 0.5 mg/kg, po measured up to 24 hrs by LC-MS/MS analysis
Assay type: ADME, organism-based, Canis lupus familiaris
Conditions: in vivo
READOUT_NAME: half-life (h)
Numbers only; they are read as h.

The value of half-life measured for the compound `CCCOc1ccc(NC(=O)CN2CCN(C)CC2)cc1-c1nc(CC)c(CC)c(=O)[nH]1` turned out to be 4.89

* * *

Test: Volume of distribution at steady state in Beagle dog at 0.5 mg/kg, iv measured up to 24 hrs by LC-MS/MS analysis
Type: ADME, organism-based, Canis lupus familiaris
Conditions: in vivo, read-out: Vdss
READOUT_NAME: Vd (L/kg)
Numbers only; they are read as L/kg.

The value of Vd measured for the molecule `CCCOc1ccc(NC(=O)CN2CCN(C)CC2)cc1-c1nc(CC)c(CC)c(=O)[nH]1` turned out to be 3.83

* * *

Test: Half-life in Sprague-Dawley rat at 1 mg/kg, po measured up to 24 hrs by LC-MS/MS analysis
Type: ADME, organism-based
Details: in vivo
READOUT_NAME: half-life (h)
Numbers only; they are read as h.

The value of half-life measured for the molecule `CCCOc1ccc(NC(=O)CN2CCN(C)CC2)cc1-c1nc(CC)c(CC)c(=O)[nH]1` turned out to be 2.82

* * *

Test: Tmax in Sprague-Dawley rat at 1 mg/kg, po measured up to 24 hrs by HPLC analysis
Type: ADME, organism-based
Conditions: in vivo
READOUT_NAME: Tmax

The value of Tmax measured for the molecule `CCCc1nn(C)c2c(=O)[nH]c(-c3cc(S(=O)(=O)N4CCN(C)CC4)ccc3OCC)nc12` turned out to be 1.6 h

The reported measurements were obtained from ChEMBL document CHEMBL4396872.
